Entries and their Primary assay EC50 (cAMP), n2 values follow.
- studySystem: glucagon receptor (human, UniProt P47871 26-477)
- Sequence (P47871 26-477): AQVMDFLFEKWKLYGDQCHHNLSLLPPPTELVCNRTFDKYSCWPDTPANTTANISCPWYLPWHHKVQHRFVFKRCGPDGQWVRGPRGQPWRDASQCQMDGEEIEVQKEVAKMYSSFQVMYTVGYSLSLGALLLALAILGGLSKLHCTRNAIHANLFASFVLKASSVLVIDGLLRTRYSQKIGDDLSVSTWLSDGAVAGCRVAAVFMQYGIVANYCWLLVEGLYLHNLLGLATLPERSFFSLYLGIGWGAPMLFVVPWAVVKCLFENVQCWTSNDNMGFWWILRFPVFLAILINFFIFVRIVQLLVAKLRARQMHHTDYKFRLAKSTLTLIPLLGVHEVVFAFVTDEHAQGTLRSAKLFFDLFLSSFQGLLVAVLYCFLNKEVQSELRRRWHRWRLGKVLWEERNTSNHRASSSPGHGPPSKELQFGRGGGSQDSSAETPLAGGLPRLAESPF
- procedureText: cell-based or functional assay
Starred links: 1 amine or outer side, 2 acyl side, 3 side chain; linkers in the order of their positions; H or OH if unused. Non-standard residues stand in square brackets, D forms with d. Groups on a side chain read outwards from the residue. Primed or numbered codes have the meaning given here. No end group written: not given here. *: point of attachment. γGlu = O=C(O)[C@H](CCC(=O)[*:2])N[*:1]; Stearoyl = CCCCCCCCCCCCCCCCCC(=O)*; αMeF = C[C@](N)(Cc1ccccc1)C(=O)O; αMeK = C[C@](N)(CCCCN)C(=O)O; αMeS = C[C@](N)(CO)C(=O)O; PEG2′ = not defined here; Aib = CC(C)(N)C(=O)O
Write down the numeric answer in nM and omit the unit.

Solved entries:
• H[Aib]EGS[αMeF]TSDV[αMeS]S[αMeF]LEGEAAK([PEG2′-PEG2′-γGlu-Stearoyl])E[αMeF]IA[αMeF]VVKGG-NH2 [SEQ ID NO 50] = 26
• HXEGTFTSDVSSYLEGQAAKEFIAWLVKGR (Aib 2; α-MeSer 8; α-MeSer 11; C-terminal amide) [SEQ ID NO 23] = 540
• H[Aib]EGS[αMeF]TSDVSK([PEG2′-PEG2′-PEG2′-Stearoyl])YLEGEAAEE[αMeF]IA[αMeF]VVEGG-NH2 [SEQ ID NO 62] = 25
• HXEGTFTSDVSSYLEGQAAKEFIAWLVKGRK (Aib 2; K(ε-γE-Palmitoyl) after R30; C-terminal amide) [SEQ ID NO 5] = 81

For reference, reported Primary assay EC50 (cAMP), n2 for HXEGTFTXDVSSYLEGQAAKEFIAWLVKGR (Aib 2; Aib 8; C-terminal amide) [SEQ ID NO 20] stands at 290

Given item H[Aib]EGS[αMeF]TSDV[αMeS]S[αMeF]LEGEAA[αMeK]EFIK([PEG2′-PEG2′-γGlu-Stearoyl])WVVEGG-NH2 [SEQ ID NO 68] , the value recorded as its Primary assay EC50 (cAMP), n2 is 25

# Primary assay EC50 (cAMP), n2 of H[Aib]EGS[αMeF]TSDV[αMeS]S[αMeF]LEGEAA[Aib]EFIK([PEG2′-PEG2′-γGlu-Stearoyl])WVVEGG-NH2 [SEQ ID NO 67] = 25.4

Entry H[Aib]EGS[αMeF]TSDVSS[αMeF]LEGEAAKE[αMeF]IA[αMeF]VVKGGK([PEG2′-PEG2′-γGlu-Stearoyl])-NH2 [SEQ ID NO 38] — recorded Primary assay EC50 (cAMP), n2 = 25

Form: binder = H[Aib]EGS[αMeF]TSDV[αMeS]SYLEGEAAK([PEG2′-PEG2′-γGlu-Stearoyl])E[αMeF]IA[αMeF]VV[αMeK]GG-NH2 [SEQ ID NO 47] ; Primary assay EC50 (cAMP), n2 = 25

In plain terms, H[Aib]EGSFTSDV[αMeS]S[αMeF]LEGEAAK([PEG2′-PEG2′-γGlu-Stearoyl])E[αMeF]IA[αMeF]VV[αMeK]GG-NH2 [SEQ ID NO 45] has a documented Primary assay EC50 (cAMP), n2 of 26

Reported Primary assay EC50 (cAMP), n2 for H[Aib]EGS[αMeF]TSDV[αMeS]S[αMeF]LEGEAAK([PEG2′-PEG2′-PEG2′-Stearoyl])E[αMeF]IAWVV[αMeK]GG-NH2 [SEQ ID NO 55] was 25

Lookup result for H[Aib]EGS[αMeF]TSDVSK([PEG2′-PEG2′-γGlu-Stearoyl])YLEGEAA[αMeK]E[αMeF]IA[αMeF]VVEGG-NH2 [SEQ ID NO 60] ; measured Primary assay EC50 (cAMP), n2: 25

Note to self: Primary assay EC50 (cAMP), n2 recorded for H[Aib]EGS[αMeF]TSDV[αMeS]S[αMeF]LEGEAAKEFIK([PEG2′-PEG2′-γGlu-Stearoyl])WVVEGG-NH2 [SEQ ID NO 65] was 25.1

According to the records, this binder H[Aib]EGS[αMeF]TSDV[αMeS]S[αMeF]LEGEAAK([PEG2′-PEG2′-PEG2′-Stearoyl])EFIA[αMeF]VV[αMeK]GG-NH2 [SEQ ID NO 54] displays Primary assay EC50 (cAMP), n2 of 26

Memo: H[Aib]EGS[αMeF]TSDVSK([PEG2′-PEG2′-PEG2′-Stearoyl])YLEGEAA[Aib]E[αMeF]IA[αMeF]VVEGG-NH2 [SEQ ID NO 63] , reported Primary assay EC50 (cAMP), n2: 25.7

Entry H[Aib]EGS[αMeF]TSDV[αMeS]S[αMeF]LEGEAAK([PEG2′-PEG2′-γGlu-Stearoyl])E[αMeF]IA[αMeF]VV[αMeK]GG-NH2 [SEQ ID NO 3] ; Primary assay EC50 (cAMP), n2 = 25

Input H[Aib]EGS[αMeF]TSDVSS[αMeF]LEGEAAK([PEG2′-PEG2′-PEG2′-Stearoyl])E[αMeF]IA[αMeF]VV[αMeK]GG-NH2 [SEQ ID NO 52] . Output Primary assay EC50 (cAMP), n2: 26

The binder identified as H[Aib]EGS[αMeF]TSDVSK([PEG2′-PEG2′-PEG2′-Stearoyl])YLEGEAAKE[αMeF]IA[αMeF]VVEGG-NH2 [SEQ ID NO 61] registered its Primary assay EC50 (cAMP), n2 at 25
